experimental system: acetylcholine receptor
experiment description: SPR, AchR immobilised on CM5 chip, peptide at 10 uM
As shown below, each of these binders has a reported Binding affinity (RU) value.
Kindly provide the numeric value in RU only, without the unit symbol.

binder	unit of measurement	Binding affinity (RU)
RKLQYK [6mer-1-442]	RU	131

The binder listed as KRLRTR [6mer-1-407] shows Binding affinity (RU) equal to 153

Consider RHCNR [5mer-885] . Its measured Binding affinity (RU) is 19

Documented Binding affinity (RU) of KESWK [5mer-1167] : 12
